- System tested: CAI-1 autoinducer sensor kinase/phosphatase CqsS (Vibrio cholerae serotype O1 (strain ATCC 39315 / El Tor Inaba N16961))
- Sequence (Q9KM66 whole entry, one chain of several): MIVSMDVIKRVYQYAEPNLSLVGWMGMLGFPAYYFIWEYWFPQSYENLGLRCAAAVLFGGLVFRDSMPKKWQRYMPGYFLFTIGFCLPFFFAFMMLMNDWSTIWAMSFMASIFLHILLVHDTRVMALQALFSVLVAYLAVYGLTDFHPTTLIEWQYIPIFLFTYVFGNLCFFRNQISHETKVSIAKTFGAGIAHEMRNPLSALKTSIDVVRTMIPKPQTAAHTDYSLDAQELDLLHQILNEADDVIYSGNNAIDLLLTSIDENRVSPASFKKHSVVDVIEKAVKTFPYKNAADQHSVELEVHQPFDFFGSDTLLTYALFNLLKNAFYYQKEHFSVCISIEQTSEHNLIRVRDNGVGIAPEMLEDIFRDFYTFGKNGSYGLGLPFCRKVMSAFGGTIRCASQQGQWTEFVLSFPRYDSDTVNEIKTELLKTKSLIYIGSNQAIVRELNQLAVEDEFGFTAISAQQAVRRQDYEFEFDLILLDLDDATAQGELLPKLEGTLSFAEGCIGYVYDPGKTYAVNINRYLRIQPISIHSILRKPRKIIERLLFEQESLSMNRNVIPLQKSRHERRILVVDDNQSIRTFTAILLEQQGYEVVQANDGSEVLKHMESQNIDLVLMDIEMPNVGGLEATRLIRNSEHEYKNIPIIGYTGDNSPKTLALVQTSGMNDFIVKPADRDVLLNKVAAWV
- Test description: Ratio of compound EC50 to (S)-CAI-1 EC50 for CqsS receptor in cqsA-deficient, luxQ-deficient Vibrio cholerae MM920 harboring cosmid pBB1 carrying Vibrio harveyi luxCDABE gene assessed as induction of quorum sensing regulated bioluminescence after 4 hrs by scintillation counting

Molecule	Value comparator	Ratio EC50
CCCCCCCCCC(=O)C(O)C(C)C (racemic)	=	21
CCCCCC(=O)[C@@H](O)CC	>	200
CCCCCCCCCC(=O)C(S)CC (stereo not drawn)	=	8.6

---

- System tested: CAI-1 autoinducer sensor kinase/phosphatase CqsS (Vibrio cholerae serotype O1 (strain ATCC 39315 / El Tor Inaba N16961))
- Test description: Agonist activity at CqsS receptor in cqsA-deficient, luxQ-deficient Vibrio cholerae MM920 harboring cosmid pBB1 carrying Vibrio harveyi luxCDABE gene assessed as induction of quorum sensing regulated bioluminescence after 4 hrs by scintillation counting
pEC50: −log10 of the molar value.
Measured pEC50 by item
Quantity measured: pEC50

Compound	Result
CCCCCC(=O)[C@@H](O)CC	< 4.30
CCCCCCCCCC(=O)C(Cl)CC (centres undefined)	< 4.30
CCCCCCCCCCCCC(=O)[C@@H](O)CC	< 4.30
CCCCCCCCCCC(=O)CC	< 4.30

Origin of the recorded values: ChEMBL document CHEMBL1921757
